assayedTarget: interaction between PD-1 and PD-L1 (Homo sapiens)
Sequence (Q9NZQ7 19-238 limits assumed): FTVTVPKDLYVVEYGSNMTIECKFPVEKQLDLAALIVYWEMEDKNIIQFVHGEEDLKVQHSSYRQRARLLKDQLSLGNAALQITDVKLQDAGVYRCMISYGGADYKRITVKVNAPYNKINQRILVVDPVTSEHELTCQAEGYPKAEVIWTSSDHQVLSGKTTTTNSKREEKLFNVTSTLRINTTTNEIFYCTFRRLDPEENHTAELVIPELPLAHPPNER
testProtocol: PD-1/PD-L1 protein-protein interaction assay (ALPHA)
testContext: 2 nM His-tagged human PD-L1, 0.6 nM PD-1-Fc, AlphaScreen
testReadout: IC50

> print(dat)
                                   compound                             assayedtarget  testreadout      result
1  COc1cc(CNC[C@@H]2CCC(=O)N2)cc(-n2ccc3c(-c4ccc5c(c4)OCCO5)cccc32)c1  interaction between PD-1 and PD-L1 (Homo sapiens)         IC50    > 100 nM
2  CC(CO)(NCc1ccc(-n2ccc3c(-c4ccc5c(c4)OCCO5)cccc32)cc1OCc1cccc(C#N)c1)C(=O)O (stereo not shown)  interaction between PD-1 and PD-L1 (Homo sapiens)         IC50    > 100 nM
3  COc1cc(-n2ncc3c(-c4cccc(-c5ccc(CNCCO)c(OC)n5)c4Cl)cccc32)cc(OC)c1CNCCO  interaction between PD-1 and PD-L1 (Homo sapiens)         IC50      < 1 nM
4  COc1cc(-n2ncc3c(-c4cccc(Nc5nc(C(F)F)nc6cc(CN7CC[C@@H](C(=O)O)C7)cnc56)c4C)cccc32)cc(OC)c1CN1CC[C@@H](O)C1  interaction between PD-1 and PD-L1 (Homo sapiens)         IC50      < 1 nM
5  COc1cc(-n2ncc3c(-c4cccc(-c5ccc(CN6CC[C@@H](O)C6)c(OC)n5)c4Cl)cccc32)cc(OC)c1CNC[C@@H]1CCC(=O)N1  interaction between PD-1 and PD-L1 (Homo sapiens)         IC50  1 to 10 nM
6  COc1cc(-n2ncc3c(-c4cccc(-c5ccc(CN6CC7(CNC(=O)C7)C6)c(OC)n5)c4Cl)cccc32)ncc1CNC[C@@H]1CCC(=O)N1  interaction between PD-1 and PD-L1 (Homo sapiens)         IC50      < 1 nM
7  COc1cc(-n2ncc3c(-c4cccc(-c5ccc(CN6CC(C(C)(C)O)C6)c(OC)n5)c4Cl)cccc32)ncc1CNCCO  interaction between PD-1 and PD-L1 (Homo sapiens)         IC50      < 1 nM

----------
assayedTarget: PD-1/PD-L1 interaction (Homo sapiens)
testProtocol: PD-1/PD-L1 blockage cell-based bioassay (Jurkat NFAT luciferase / CHO-PDL1 co-culture)
testContext: Jurkat NFAT cells co-cultured with CHO-PDL1 cells, 6 h, luminescence
pIC50: −log10 of the molar value.

compound	pIC50
COc1cc(-n2ccc3c(-c4cccc5c4ccn5-c4cc(OC)c(CNC[C@@H]5CCC(=O)N5)c(OC)c4)cccc32)cc(OC)c1CNC[C@@H]1CCC(=O)N1 [Example 64]	< 5.70
COC(=O)C1CC[C@H](NCc2ccc(-c3cccc(-c4cccc5c4ccn5-c4cc(OC)c(CNC[C@@H]5CCC(=O)N5)c(OC)c4)c3Cl)nc2OC)C1 (some centres unmarked) [Example 50]	< 5.70
CCOC(=O)[C@@H](NCc1c(OC)cc(-n2ncc3c(-c4cccc(-c5ccc(CN6CC7(CNC(=O)C7)C6)c(OC)n5)c4Cl)cccc32)cc1OC)[C@@H](C)O [Example 145]	5.70 to 6.70
COc1cc(-n2ncc3c(-c4cccc(-c5ccc(CN[C@H]6C[C@@H](O)C6)c(OC)n5)c4Cl)cccc32)cc(OC)c1CN1CC(C)(C(=O)NC2CC2)C1 [Example 100]	> 6.70
COc1cc(-n2ncc3c(-c4cccc(-c5ccc(CN[C@H]6C[C@@H](O)C6)c(OC)n5)c4Cl)cccc32)cc(OC)c1CN[C@H](CO)C(=O)O [Example 126]	> 6.70
COc1cc(-n2ncc3c(-c4cccc(-c5ccc(C6=NCCN6)c(OC)n5)c4Cl)cccc32)cc(OC)c1CN1CC2(CNC(=O)C2)C1 [Example 76]	> 6.70
COc1cc(-n2ncc3c(-c4cccc(-c5ccc(CN[C@H]6C[C@@H](O)C6)c(OC)n5)c4Cl)cccc32)cc(OC)c1CNCCO [Example 125]	> 6.70
COc1cc(-n2ncc3c(-c4cccc(-c5ccc(CN[C@H]6C[C@@H](O)C6)c(OC)n5)c4Cl)cccc32)cc(OC)c1CNC[C@@H](C)O [Example 113]	> 6.70
COc1cc(-n2ncc3c(-c4cccc(-c5ccc(CNC[C@@H]6CCC(=O)N6)c(OC)n5)c4Cl)cccc32)cc(OC)c1CN1CC[C@@H](C(=O)O)C1 [Example 117]	> 6.70
COc1cc(-n2ncc3c(-c4cccc(-c5ccc(CN[C@H]6C[C@@H](O)C6)c(OC)n5)c4Cl)cccc32)cc(OC)c1CNCC(C)(C)C(N)=O [Example 109]	> 6.70
COc1cc(-c2cccc(-c3cccc4c3cnn4-c3cc(OC)c(CN4CC5(CNC(=O)C5)C4)c(OC)c3)c2Cl)cc(F)c1CN(C)C12CCC(C(=O)O)(CC1)CC2 [Example 160]	> 6.70
COc1cc(-n2ncc3c(-c4cccc(-c5ccc(CN6CC(C)(C(=O)NC7CC7)C6)c(OC)n5)c4Cl)cccc32)cc(OC)c1CNC[C@H]1C[C@@H](O)C1 [Example 95]	5.70 to 6.70
COc1cc(-n2ncc3c(-c4cccc(-c5ccc(CN[C@H]6C[C@@H](O)C6)c(OC)n5)c4Cl)cccc32)ncc1CN[C@H]1C[C@@H](O)C1 [Example 106]	5.70 to 6.70
COc1cc(-n2ncc3c(-c4cccc(-c5ccc(CN6CC7(CNC(=O)C7)C6)c(OC)n5)c4Cl)cccc32)cc(OC)c1CN1CC2(CNC(=O)C2)C1 [Example 90]	5.70 to 6.70

----------
assayedTarget: PD-1/PD-L1 interaction (Homo sapiens, UniProt Q9NZQ7)
Sequence (Q9NZQ7 19-290): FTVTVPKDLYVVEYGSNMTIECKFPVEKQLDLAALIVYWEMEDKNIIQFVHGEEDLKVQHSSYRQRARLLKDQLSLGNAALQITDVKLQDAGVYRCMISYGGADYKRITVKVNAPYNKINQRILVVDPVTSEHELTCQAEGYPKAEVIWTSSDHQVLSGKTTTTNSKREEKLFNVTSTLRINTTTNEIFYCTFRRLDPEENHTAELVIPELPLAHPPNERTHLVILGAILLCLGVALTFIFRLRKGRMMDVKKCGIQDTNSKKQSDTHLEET
testProtocol: PD-1/PD-L1 blockage cell-based bioassay (Jurkat NFAT luciferase / CHO-PDL1 co-culture)
testContext: Jurkat NFAT cells co-cultured with CHO-PDL1 cells, 6 h, luminescence
pIC50: −log10 of the molar value.
testReadout: pIC50

> print(dat)
                                    compound                             assayedtarget  testreadout        result
 1  COc1cc(-n2ncc3c(-c4cccc(-c5ccc(CNC[C@@H]6CCC(=O)N6)c(OC)n5)c4Cl)cccc32)cc(OC)c1CN1CC(C)(C(=O)NC2CC2)C1 [Example 88]  PD-1/PD-L1 interaction (Homo sapiens, UniProt Q9NZQ7)        pIC50  5.70 to 6.70
 2  COc1cc(-n2ncc3c(-c4cccc(-c5ccc(CN6CC7(CNC(=O)C7)C6)c(OC)n5)c4Cl)cccc32)cc(OC)c1CN1CC(C(C)(C)O)C1 [Example 137]  PD-1/PD-L1 interaction (Homo sapiens, UniProt Q9NZQ7)        pIC50  5.70 to 6.70
 3  COc1cc(-n2ccc3c(-c4cccc(-c5ccc(CNC[C@H]6C[C@@H](O)C6)c(OC)n5)c4Cl)cccc32)cc(OC)c1CNC[C@@H]1CCC(=O)N1 [Example 82]  PD-1/PD-L1 interaction (Homo sapiens, UniProt Q9NZQ7)        pIC50  5.70 to 6.70
 4  COc1cc(-n2ccc3c(-c4cccc(-c5ccc(CN6CC(C)(O)C6)c(OC)n5)c4Cl)cccc32)cc(OC)c1CN1CC2(CNC(=O)C2)C1 [Example 84]  PD-1/PD-L1 interaction (Homo sapiens, UniProt Q9NZQ7)        pIC50  5.70 to 6.70
 5  COc1cc(-n2ncc3c(-c4cccc(-c5ccc(CN[C@H]6C[C@@H](O)C6)c(OC)n5)c4Cl)cccc32)ncc1CNC[C@@H](C)O [Example 122]  PD-1/PD-L1 interaction (Homo sapiens, UniProt Q9NZQ7)        pIC50  5.70 to 6.70
 6  COc1cc(-n2ncc3c(-c4cccc(-c5ccc(CN6CC[C@@H](O)C6)c(OC)n5)c4Cl)cccc32)cc(OC)c1CNC[C@@H]1CCC(=O)N1 [Example 87]  PD-1/PD-L1 interaction (Homo sapiens, UniProt Q9NZQ7)        pIC50        < 5.70
 7  COc1cc(-n2ncc3c(-c4cccc(-c5nc6cc(CN7CC[C@@H](C(=O)O)C7)cc(C#N)c6o5)c4C)cccc32)cc(OC)c1CN1CC[C@H](O)C1 [Example 155]  PD-1/PD-L1 interaction (Homo sapiens, UniProt Q9NZQ7)        pIC50        > 6.70
 8  COc1cc(-n2ncc3c(-c4cccc(-c5ccc(CN[C@H]6C[C@@H](O)C6)c(OC)n5)c4Cl)cccc32)ncc1CN1CC(C)(O)C1 [Example 124]  PD-1/PD-L1 interaction (Homo sapiens, UniProt Q9NZQ7)        pIC50  5.70 to 6.70
 9  COC(=O)[C@@H](CO)NCc1c(OC)cc(-n2ncc3c(-c4cccc(-c5ccc(CNC[C@@H]6CCC(=O)N6)c(OC)n5)c4Cl)cccc32)cc1OC [Example 134]  PD-1/PD-L1 interaction (Homo sapiens, UniProt Q9NZQ7)        pIC50        > 6.70
10  COc1cc(-n2ncc3c(-c4cccc(-c5ccc(CN6CC7(CNC(=O)C7)C6)c(OC)n5)c4Cl)cccc32)cc(OC)c1CN[C@H](C(=O)O)[C@@H](C)O [Example 141]  PD-1/PD-L1 interaction (Homo sapiens, UniProt Q9NZQ7)        pIC50        > 6.70
11  COc1cc(-n2ncc3c(-c4cccc(-c5ccc(CN[C@H]6C[C@@H](O)C6)c(OC)n5)c4Cl)cccc32)cc(OC)c1CN[C@@H](C)CO [Example 119]  PD-1/PD-L1 interaction (Homo sapiens, UniProt Q9NZQ7)        pIC50  5.70 to 6.70
12  COc1cc(-n2ccc3c(-c4cccc(-c5ccc(CNCC(C)(C)C(=O)O)c(OC)n5)c4Cl)cccc32)cc(OC)c1CNC[C@@H]1CCC(=O)N1 [Example 48]  PD-1/PD-L1 interaction (Homo sapiens, UniProt Q9NZQ7)        pIC50        < 5.70
13  COc1cc(-n2ccc3c(-c4cccc(-c5ccc(CNC[C@@H]6CCC(=O)N6)c(OC)n5)c4Cl)ccnc32)cc(OC)c1CN1CC(C)(C(=O)NC2CC2)C1 [Example 46]  PD-1/PD-L1 interaction (Homo sapiens, UniProt Q9NZQ7)        pIC50        < 5.70
14  COc1cc(-n2ccc3c(-c4cccc(-c5cnc(CNC[C@@H]6CCC(=O)N6)c(OC)n5)c4Cl)cccc32)cc(OC)c1CNC[C@@H]1CCC(=O)N1 [Example 65]  PD-1/PD-L1 interaction (Homo sapiens, UniProt Q9NZQ7)        pIC50  5.70 to 6.70
15  COc1cc(-n2ccc3c(-c4cccc(-c5ccc(CNC[C@@H]6CCC(=O)N6)c(OC)n5)c4Cl)cccc32)cc(OC)c1CN1CC(C)(O)C1 [Example 53]  PD-1/PD-L1 interaction (Homo sapiens, UniProt Q9NZQ7)        pIC50  5.70 to 6.70
